Each entry below lists one item and its recorded GI50 value.
- Test system: PC-3 prostate
- assay-summary: NCI tumour cell line growth inhibition, 48 h

Field: example entries. Status: answers known.
# compound, result
measured = [
    ("CNC(=O)OC1C(O[C@H]2C[C@H]3[C@@H]4CC=C5C[C@@H](O)CC[C@]5(C)[C@H]4CC[C@]3(C)[C@H]2[C@H](C)C(=O)CCC(C)C)OCC(O)C1OC1OCC(O)C(O)C1OC(=O)c1ccc(OC)cc1 (stereo partly drawn)", "10 nM"),
    ("COc1ccc(CC(NC(=O)[C@H](C)NC(=O)CN2CCOCC2)C(=O)N[C@@H](Cc2ccccc2)C(=O)[C@@]2(C)CO2)cc1 (stereo partly drawn)", "229 nM"),
]

With those in mind, consider the next compound.
Would you mind telling me what GI50 value was observed for C/C1=C/C(=O)O[C@@H]2C[C@@H](CC[C@H](C)/C=C\C=C\CC1)O[C@@](OCCc1ccccc1)([C@@H]1CSC(=O)N1)C2 ? 75.4 nM

----------
- System: OVCAR-4 ovarian
- assay-summary: NCI tumour cell line growth inhibition, 48 h
metric-name: TGI

# compound, TGI
measured = [
    ("CCCCCCCCCCCC(=O)c1c(O)cccc1O", "37.6 µM"),
    ("CSCCC(NC(=O)OCc1ccccc1)P(=O)(O)c1ccccc1 (stereo unspecified)", "> 100 µM"),
    ("COc1ccc(C(=O)N(C(=O)N2CCN(c3ccccc3)CC2)S(=O)(=O)c2ccccc2)cc1", "> 100 µM"),
    ("Cc1cc(N(CCC#N)CCC#N)ccc1N=Nc1cccc(Cl)c1", "> 100 µM"),
]

Would you mind telling me what TGI value was observed for S=C1N=C(Cl)/C(=C\c2ccco2)N1 ? > 100 µM

Would you mind telling me what TGI value was observed for CC1(C)N=C(C(=O)c2ccccc2)N(O)C1(O)c1ccccc1 (stereo unspecified) ? > 100 µM

----------
- Test system: IGROV1 ovarian
- assay-summary: NCI tumour cell line growth inhibition, 48 h; in the data active = GI50 below about 0.43 µM; inactive = the rest
# valid calls are t (active), f (inactive); nothing else

Dear colleague, could you share the recorded outcome for COC(=O)C1(C2CC/C(C)=C/CC/C(C)=C/CC[C@@]3(C)O[C@@H]3C2)CC1 (some centres undefined) when you have a moment? f

Dear colleague, could you share the recorded outcome for O=C(Nc1ccc(Cl)cc1)c1cc(S(=O)(=O)Nc2nnc(-c3ccccc3)c(-c3ccccc3)n2)c(SCc2ccccc2)cc1Cl when you have a moment? f

Dear colleague, could you share the recorded outcome for CS(=O)(=O)CCn1c(=O)c(Oc2ccc(F)cc2F)cc2cnc(NC3CCOCC3)nc21 when you have a moment? f

Dear colleague, could you share the recorded outcome for O=C(O)c1cc(Cc2ccc(O)c(C(=O)O)c2)ccc1O (tested in a mixture with another compound) when you have a moment? f

Dear colleague, could you share the recorded outcome for CC1SC(c2c(Cl)cccc2Cl)N(NC(=O)C(O)c2ccccc2)C1=O (centres undefined) when you have a moment? f

Dear colleague, could you share the recorded outcome for O=C(Nc1ccccc1O)c1ccc(CNC(=O)c2sccc2Nc2ccnc(C(F)(F)F)c2)cc1 when you have a moment? f

Dear colleague, could you share the recorded outcome for c1cc[c]([Sn]([S]c2cccc3cccnc23)([S]c2cccc3cccnc23)[c]2ccccc2)cc1 when you have a moment? t

----------
- Test system: A549 NSCLC
- assay-summary: NCI tumour cell line growth inhibition, 48 h
metric-name: TGI (µM)
Numeric answer only, unit µM assumed.

# structure, TGI [µM]
measured = [
    ("c1ccc2cc(Cn3c[n+](Cc4ccc5ccccc5c4)c4ccccc43)ccc2c1", 3.88),
]

Would you mind telling me what TGI value was observed for O=S(=O)(NCCNc1cc(-c2cn(-c3ccccc3)nc2-c2cccc(O)c2)ccn1)c1ccc(Cl)cc1 ? 18.8

----------
- Tested on: SK-OV-3 ovarian
- assay-summary: NCI tumour cell line growth inhibition, 48 h; in the data active = GI50 below about 0.43 µM; inactive = the rest
# valid calls are active, inactive; nothing else

# compound, group-label
measured = [
    ("COC(=O)C1(C2CC/C(C)=C/CC/C(C)=C/CC[C@@]3(C)O[C@@H]3C2)CC1 (some centres undefined)", "inactive"),
    ("c1ccc2cc(Cn3c[n+](Cc4ccc5ccccc5c4)c4ccccc43)ccc2c1", "inactive"),
]

Dear colleague, could you share the recorded outcome for COc1ccc2c(c1)cn1c3ccc(O)cc3[nH]c(=O)c21 when you have a moment? active

Dear colleague, could you share the recorded outcome for C#Cc1cccc(Oc2ccc(NC(=O)CCl)cc2)c1 when you have a moment? inactive

----------
- Test system: HS 578T breast
- assay-summary: NCI tumour cell line growth inhibition, 48 h
Each entry below lists one item and its recorded TGI value.
Numeric answer only, unit µM assumed.

Field: example entries. Status: answers known.
# compound, metric-name, numeric-result
data = [
    ("O=C(Nc1ccc(Cl)cc1)c1cc(S(=O)(=O)Nc2nnc(-c3ccccc3)c(-c3ccccc3)n2)c(SCc2ccccc2)cc1Cl", "TGI", 71.1),
    ("CNC(=O)OC1C(O[C@H]2C[C@H]3[C@@H]4CC=C5C[C@@H](O)CC[C@]5(C)[C@H]4CC[C@]3(C)[C@H]2[C@H](C)C(=O)CCC(C)C)OCC(O)C1OC1OCC(O)C(O)C1OC(=O)c1ccc(OC)cc1 (stereo not given in full)", "TGI", 0.0584),
]

With those in mind, consider the next compound.
Would you mind telling me what TGI value was observed for COc1ccc2c(c1)cn1c3ccc(O)cc3[nH]c(=O)c21 ? 25.2

----------
- System: SF-539 CNS
- assay-summary: NCI tumour cell line growth inhibition, 48 h; in the data active = GI50 below about 0.43 µM; inactive = the rest
# valid calls are active, inactive; nothing else

Consider the following illustrative entries.
# molecule, group-label
measured = [
    ("Cc1cccc2c1O/C(=C\\c1ccc([N+](=O)[O-])o1)C2=O", "inactive"),
    ("CN1CCN(c2ccc(NC3=C(Cl)C(=O)c4ncccc4C3=O)cc2C#N)CC1", "inactive"),
    ("Oc1c(I)cc(-c2nc3ccccc3s2)cc1CN(Cc1ccccn1)Cc1ccccn1", "active"),
]

Dear colleague, could you share the recorded outcome for Cc1cc(C)cc(Nc2ccc([N+](=O)[O-])c(NCCN3CCOCC3)n2)c1 when you have a moment? active

Dear colleague, could you share the recorded outcome for NC(=S)N/N=C\c1nccc2c(N)cccc12 when you have a moment? active

Dear colleague, could you share the recorded outcome for CCCCCCCCCCCCCC(=O)C(C)N (stereo unspecified) when you have a moment? inactive

----------
Each entry below lists one item and its recorded TGI value.
- Tested on: UACC-257 melanoma
- assay-summary: NCI tumour cell line growth inhibition, 48 h

# compound, result
measured = [
    ("O=C(O)Cn1c(=O)[nH]c(=O)c2[nH]cnc21", "> 100 µM"),
    ("CCO/C(O)=C(/C(=N)N1CCCC1)C(=O)Nc1ccc(F)cc1", "> 100 µM"),
    ("CC(C)(C)[Si](C)(C)OCC1OC(n2cnc3c(N)ncnc32)CC1OS(C)(=O)=O (stereo unspecified)", "> 100 µM"),
    ("O=C(O)c1cscc1Cc1cccs1", "> 100 µM"),
    ("CC(=O)NC(CCCNC(=O)NCCCl)C(=O)NCc1ccccc1 (stereo unspecified)", "> 100 µM"),
]

Would you mind telling me what TGI value was observed for CCOC(=O)N[C@H]1CCc2c(Br)c(OC)c(OC)c(OC)c2-c2ccc(SC)c(=O)cc21 ? 45.2 µM

Would you mind telling me what TGI value was observed for COc1cc(C2=NN(c3ccc(S(N)(=O)=O)cc3)C(c3ccc(Cl)cc3)C2)cc(OC)c1OC (stereo unspecified) ? > 100 µM

Would you mind telling me what TGI value was observed for O=c1[nH]c(Nc2ccc(Cl)cc2)nc2nc[nH]c12 ? > 100 µM

Would you mind telling me what TGI value was observed for Nc1cc(N2CCOCC2)nc(=O)n1-c1ccc(Cl)cc1 ? > 100 µM

Would you mind telling me what TGI value was observed for Cc1[nH]nc2c1C(=O)C=C(N(CCO)c1ccccc1)C2=O ? > 100 µM

Would you mind telling me what TGI value was observed for C=CCC(N[C@H](CO)c1ccccc1)c1cn(S(=O)(=O)c2ccc(C)cc2)c2ccccc12 (stereo partly specified) ? 26.7 µM

----------
Each entry below lists one item and its recorded TGI value.
- System: HOP-62 NSCLC
- assay-summary: NCI tumour cell line growth inhibition, 48 h

Field: example entries. Status: answers known.
# compound, TGI
measured = [
    ("Brc1ccc2c(c1)C1C(CO2)C(c2ccccc2)=NN1c1ccccc1 (stereo unspecified)", "> 100 µM"),
    ("COC(=S)OC1CC(n2cnc3c(N)ncnc32)OC1CO[Si](C)(C)C(C)(C)C (stereo unspecified)", "32.8 µM"),
    ("C#C[C@]1(O)CC[C@H]2[C@@H]3CCC4=C/C(=N\\OCCN(CC)CC)CC[C@]4(C)[C@H]3CC[C@@]21C", "16 µM"),
    ("Nc1ccc2ccc(NS(=O)(=O)N3CCCCC3)cc2c1", "> 100 µM"),
    ("C#C[C@H](CCCC)OC(=O)N[C@H](C)c1ccccc1", "> 100 µM"),
]

With those in mind, consider the next compound.
Would you mind telling me what TGI value was observed for S=C1N=C(Cl)/C(=C\c2ccco2)N1 ? > 100 µM

Source of measurements: PubChem BioAssay (NCI)
